Target: EEF1AKMT4-ECE2 readthrough transcript protein (Homo sapiens)
Below, each entry is listed alongside its reported IC50.
measure: IC50 (nM)

compound: O=C(O)CNC(=O)[C@@H](CS)Cc1ccccc1
study-system: EEF1AKMT4-ECE2 readthrough transcript protein (Homo sapiens)
measure: IC50
value-comparator: >
data-value: 100000
--
compound: C[C@H](CS)C(=O)N1CCC[C@H]1C(=O)O
study-system: EEF1AKMT4-ECE2 readthrough transcript protein (Homo sapiens)
measure: IC50
value-comparator: >
data-value: 100000
--
compound: CC(C)C[C@H](NP(=O)(O)O[C@@H]1O[C@@H](C)[C@H](O)[C@@H](O)[C@H]1O)C(=O)N[C@@H](Cc1c[nH]c2ccccc12)C(=O)O
study-system: EEF1AKMT4-ECE2 readthrough transcript protein (Homo sapiens)
measure: IC50
value-comparator: =
data-value: 2.33
--
compound: O=C(O)CC(=O)N[C@@H](CS)Cc1ccccc1
study-system: EEF1AKMT4-ECE2 readthrough transcript protein (Homo sapiens)
measure: IC50
value-comparator: >
data-value: 10000
--
compound: O=C(N[C@@H](Cc1c[nH]c2ccccc12)C(=O)O)C(CS)C1CCc2cc(Br)ccc21 (stereo not given in full)
study-system: EEF1AKMT4-ECE2 readthrough transcript protein (Homo sapiens)
measure: IC50
value-comparator: =
data-value: 43.4

---

Below, each entry is listed alongside its reported pKi.
Target: EEF1AKMT4-ECE2 readthrough transcript protein (Homo sapiens, UniProt P0DPD8)
Sequence (P0DPD8 whole entry): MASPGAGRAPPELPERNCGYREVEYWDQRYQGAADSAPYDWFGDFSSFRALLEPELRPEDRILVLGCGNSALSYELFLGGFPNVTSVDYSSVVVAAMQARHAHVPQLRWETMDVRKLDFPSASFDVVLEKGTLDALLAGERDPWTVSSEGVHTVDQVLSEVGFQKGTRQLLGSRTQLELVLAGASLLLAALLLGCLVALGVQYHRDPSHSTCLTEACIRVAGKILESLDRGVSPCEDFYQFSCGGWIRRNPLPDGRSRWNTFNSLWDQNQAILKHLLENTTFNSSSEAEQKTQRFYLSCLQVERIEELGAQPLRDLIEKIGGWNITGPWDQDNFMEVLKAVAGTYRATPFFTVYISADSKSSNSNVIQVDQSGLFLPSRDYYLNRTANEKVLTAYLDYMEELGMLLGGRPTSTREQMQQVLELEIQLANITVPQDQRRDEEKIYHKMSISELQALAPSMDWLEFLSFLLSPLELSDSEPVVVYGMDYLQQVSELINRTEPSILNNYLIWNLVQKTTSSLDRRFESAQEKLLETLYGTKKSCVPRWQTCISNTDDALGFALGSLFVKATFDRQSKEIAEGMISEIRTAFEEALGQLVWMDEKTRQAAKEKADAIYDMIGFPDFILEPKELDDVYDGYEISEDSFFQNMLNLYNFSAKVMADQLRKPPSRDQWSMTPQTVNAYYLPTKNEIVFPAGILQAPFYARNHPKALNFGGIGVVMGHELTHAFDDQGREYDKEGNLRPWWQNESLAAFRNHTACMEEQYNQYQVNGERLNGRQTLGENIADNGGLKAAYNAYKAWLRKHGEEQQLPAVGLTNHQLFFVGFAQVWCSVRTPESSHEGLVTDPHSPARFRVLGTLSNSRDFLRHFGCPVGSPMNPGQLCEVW
pKi: −log10 of the molar value.

compound: O=C(O)[C@H](Cc1c[nH]c2ccccc12)NC(=O)[C@H](CS)C1CCc2ccccc21 (stereo not given in full)
value-comparator: =
pKi: 8.11
--
compound: C[C@H](CS)C(=O)N1CCC[C@H]1C(=O)O
value-comparator: <
pKi: 4.00
--
compound: O=C(N[C@@H](Cc1c[nH]c2ccccc12)C(=O)O)C(CS)C1CCc2cc(Br)ccc21 (stereo not given in full)
value-comparator: =
pKi: 7.65
--
compound: O=C(O)CNC(=O)[C@@H](CS)Cc1ccccc1
value-comparator: <
pKi: 4.00
--
compound: CC(C)C[C@H](NP(=O)(O)O[C@@H]1O[C@@H](C)[C@H](O)[C@@H](O)[C@H]1O)C(=O)N[C@@H](Cc1c[nH]c2ccccc12)C(=O)O
value-comparator: =
pKi: 8.92
